measurement-notes: inhibition of 3D7 malaria parasite growth – strain 3D7 (AID 2306);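 also: 0% = DMSO wells and 100% = chloroquine plus artemisinin control wells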
assay-context: P. falciparum 3D7 erythrocytic growth, LDH absorbance, 72 h; at 2 µM; hits give high values
endpoint: growth inhibition (%)
Answer format: numeric, % implied, no suffix.

input: Reported growth inhibition for Cc1ccccc1C1CCN(C2CCC(NC(=O)C3=Cc4cc(Cl)ccc4OC3)CC2)CC1 (stereo unspecified) : what is it?
output: 100

input: Reported growth inhibition for O=C(Nc1cccc(CN2CCCN(Cc3ccc(O)cc3)CC2)c1)c1ccc(Br)cc1 : what is it?
output: 94

input: Reported growth inhibition for Cc1csc(-c2nc(NCCc3c(C)noc3C)ncc2-c2ccsc2)n1 : what is it?
output: 90

input: Reported growth inhibition for COc1ccc(NC(=O)[C@H](CC(C)C)Nc2cc(C)nc(NCc3ccccc3C)n2)cc1 : what is it?
output: 101

input: Reported growth inhibition for O=[N+]([O-])c1cccc(CNCC2CCN(Cc3ccc4ccccc4c3)CC2)c1 : what is it?
output: 100

input: Reported growth inhibition for O=C(Nc1ccc([N+](=O)[O-])cc1O)Nc1ccccc1Oc1ccccc1 : what is it?
output: 92

input: Reported growth inhibition for Cc1cc(Nc2c(C(N)=O)cnc3cc(-c4ccoc4)ccc23)ccc1N1CCN(C)CC1 : what is it?
output: 101

input: Reported growth inhibition for C[C@H](NC(=O)c1c(CN2CCN(C(=O)C(C)(C)C)CC2)c(-c2cccs2)nc2ccccc12)C1CCCCC1 : what is it?
output: 89

input: Reported growth inhibition for Cn1c(O)c(N=NC(=S)N2CCOCC2)c2ccccc21 : what is it?
output: 95

input: Reported growth inhibition for Clc1ccc(OCc2ccccc2)c(-c2nc(-c3nc4ccc(Cl)cc4[nH]3)cs2)c1 : what is it?
output: 99

input: Reported growth inhibition for COc1ccc(O)c(C(=O)c2cc(C#N)c(=O)n(-c3ccc(Oc4ccccc4)cc3)c2)c1 : what is it?
output: 97
